tested on: Escherichia coli; assay: Binding affinity to Escherichia coli MRE600 ribosome assessed as protection against N1-cyclohexyl-N3-(2-morpholino)ethylcarbodiimide p-toluenesulfonate-induced modifications at nucleotide U2506 in peptidyl transferase center of 23S rRNA at 50 uM by chemical footprinting relative to control
quantity.kind: Activity

compound	readout.value
C=C[C@]1(C)C[C@@H](OC(=O)Cn2cc(Cc3ccccc3)nn2)[C@]2(C)[C@H](C)CC[C@]3(CCC(=O)[C@@H]32)[C@@H](C)[C@@H]1O	0.06

[1] C=C[C@]1(C)C[C@@H](OC(=O)Cn2cc(CCc3ccccc3)nn2)[C@]2(C)[C@H](C)CC[C@]3(CCC(=O)[C@@H]32)[C@@H](C)[C@@H]1O
[2] C=C[C@]1(C)C[C@@H](OC(=O)Cn2cc([C@@H](O)[C@@H]3O[C@H](n4cc(C)c(=O)[nH]c4=O)C[C@H]3O)nn2)[C@]2(C)[C@H](C)CC[C@]3(CCC(=O)[C@@H]32)[C@@H](C)[C@@H]1O (mixture of isomers)
Exercise: // compare measured Activity, left 1 , right 2 , return larger Refer to your chosen entry by its label in the reply.
Key: 2

Data origin: ChEMBL document CHEMBL1156624
